# credit: paper PMC12797170

- assay-notes: Microsomal stability assay, human liver microsomes
- Assay type: in vitro ADME
- experimental-context: 10 μM
measured-attribute: Mics (hu) comp remaining 60 min (%)

Field: example entries. Status: answers known.
O=P(O)(O)CP(=O)(O)OC[C@H]1O[C@@H](n2ccc3c(-c4cc5ccccc5[nH]4)nc(Cl)nc32)[C@H](O)[C@@H]1O [7B.24] = 111
O=P(O)(O)CP(=O)(O)OC[C@H]1O[C@@H](n2ccc3c(-c4ccc5cc(O)ccc5c4)nc(Cl)nc32)[C@H](O)[C@@H]1O [7B.32] = 104
COc1nc(-c2ccc3ccccc3c2)c2ccn([C@@H]3O[C@H](COP(=O)(O)CP(=O)(O)O)[C@@H](O)[C@H]3O)c2n1 [21F.7] = 104
O=P(O)(O)CP(=O)(O)OC[C@H]1O[C@@H](n2ccc3c(-c4cnc5ccccc5c4)ncnc32)[C@H](O)[C@@H]1O [4A.20] = 88
O=P(O)(O)CP(=O)(O)OC[C@H]1O[C@@H](n2ccc3c(-c4cc5ccccc5o4)nc(Cl)nc32)[C@H](O)[C@@H]1O [7B.8] = 98
Cc1nc(-c2cccc3ccccc23)c2ccn([C@@H]3O[C@H](COP(=O)(O)CP(=O)(O)O)[C@@H](O)[C@H]3O)c2n1 [18E.6] = 98
O=P(O)(O)CP(=O)(O)OC[C@H]1O[C@@H](n2ccc3c(-c4ccc5ncccc5c4)ncnc32)[C@H](O)[C@@H]1O [4A.19] = 94

P: CC1(C)Cc2cc(-c3nc(Cl)nc4c3ccn4[C@@H]3O[C@H](COP(=O)(O)CP(=O)(O)O)[C@@H](O)[C@H]3O)ccc2O1 [7B.30]
Q: O=P(O)(O)CP(=O)(O)OC[C@H]1O[C@@H](n2ccc3c(-c4ccc5cc(OCc6ccccc6)ccc5c4)nc(Cl)nc32)[C@H](O)[C@@H]1O [7B.31]
Challenge: Rank P against Q by their Mics (hu) comp remaining 60 min values and give the higher one. Mark your selection by writing its label.
Response given: Q
(Q: 147%, P: 102%)

###

- assay-notes: Microsomal stability assay, mouse liver microsomes
- Assay type: in vitro ADME
- experimental-context: pooled liver microsomes, pH 7.4, read-out: Mics (m) CLint
This listing pairs compounds with measured microsomal CLint at 10 µM.

COC(=O)c1ccc2cc(-c3nc(Cl)nc4c3ccn4[C@@H]3O[C@H](COP(=O)(O)CP(=O)(O)O)[C@@H](O)[C@H]3O)ccc2c1 = < 2 µL/min/mg
Nc1nc(-c2ccco2)c2ccn([C@@H]3O[C@H](COP(=O)(O)CP(=O)(O)O)[C@@H](O)[C@H]3O)c2n1 [11C.1] = < 1 µL/min/mg
Cc1nc(-c2cc3ccccc3o2)c2ccn([C@@H]3O[C@H](COP(=O)(O)CP(=O)(O)O)[C@@H](O)[C@H]3O)c2n1 [18E.8] = < 1 µL/min/mg

Below: the item to evaluate.
Lab book: microsomal CLint at 10 µM of O=P(O)(O)CP(=O)(O)OC[C@H]1O[C@@H](n2ccc3c(-c4ccc(F)c5ccccc45)nc(Cl)nc32)[C@H](O)[C@@H]1O noted as < 2 µL/min/mg

###

- assay-notes: In vivo pharmacokinetic study, intravenous
- Parameters: species or system male CD-1 mice
- experimental-context: mouse, plasma, 1 mg/kg; male CD-1 mice, intravenous, single dose; read-out: Cl (obs), observed clearance
measured-attribute: clearance (mL/min/kg)

Field: example entries. Status: answers known.
O=P(O)(O)CP(=O)(O)OC[C@H]1O[C@@H](n2ccc3c(-c4ccsc4)ncnc32)[C@H](O)[C@@H]1O = 12
Nc1nc(-c2cccc3ccccc23)c2ccn([C@@H]3O[C@H](COP(=O)(O)CP(=O)(O)O)[C@@H](O)[C@H]3O)c2n1 [11C.6] = 2.3
O=P(O)(O)CP(=O)(O)OC[C@H]1O[C@@H](n2ccc3c(-c4cccc5c4oc4ccccc45)ncnc32)[C@H](O)[C@@H]1O = 3.5

a: O=P(O)(O)CP(=O)(O)OC[C@H]1O[C@@H](n2ccc3c(-c4ccc5c(c4)CCCC5)nc(Cl)nc32)[C@H](O)[C@@H]1O
b: Cc1nc(-c2cc3ccccc3o2)c2ccn([C@@H]3O[C@H](COP(=O)(O)CP(=O)(O)O)[C@@H](O)[C@H]3O)c2n1 [18E.8]
c: O=P(O)(O)CP(=O)(O)OC[C@H]1O[C@@H](n2ccc3c(-c4ccc(F)c5ccccc45)nc(Cl)nc32)[C@H](O)[C@@H]1O
d: O=P(O)(O)CP(=O)(O)OC[C@H]1O[C@@H](n2ccc3c(-c4ccc5cc(O)ccc5c4)nc(Cl)nc32)[C@H](O)[C@@H]1O
Challenge: rank_up(items): orders items by reported clearance in ascending numerical order. Answer format: the labels, in the requested order.
Response given: c, a, b, d
(c: 1.7 mL/min/kg, a: 3 mL/min/kg, b: 7.4 mL/min/kg, d: 11 mL/min/kg)

###

- assay-notes: Plasma protein binding, mouse plasma
- Format: in vitro ADME
- experimental-context: mouse, plasma, mouse plasma protein binding; read-out: PPB (m) (converted)
measured-attribute: fraction unbound at 4 h, 100 µM

Field: example entries. Status: answers known.
O=P(O)(O)CP(=O)(O)OC[C@H]1O[C@@H](n2ccc3c(-c4ccc(-c5ccccc5)cc4)ncnc32)[C@H](O)[C@@H]1O = 0.144
O=P(O)(O)CP(=O)(O)OC[C@H]1O[C@@H](n2ccc3c(-c4ccc5ccccc5c4)ncnc32)[C@H](O)[C@@H]1O = 0.315
O=P(O)(O)CP(=O)(O)OC[C@H]1O[C@@H](n2ccc3c(-c4cc5ccccc5o4)nc(F)nc32)[C@H](O)[C@@H]1O [14D.8] = 0.286

P: O=P(O)(O)CP(=O)(O)OC[C@H]1O[C@@H](n2ccc3c(-c4cccc5c4oc4ccccc45)ncnc32)[C@H](O)[C@@H]1O
Q: O=P(O)(O)CP(=O)(O)OC[C@H]1O[C@@H](n2ccc3c(-c4ccc5cncnc5c4)ncnc32)[C@H](O)[C@@H]1O
R: O=P(O)(O)CP(=O)(O)OC[C@H]1O[C@@H](n2ccc3c(-c4cccc5ccccc45)nc(Cl)nc32)[C@H](O)[C@@H]1O
S: Nc1nc(-c2cccc3c2CCCC3)c2ccn([C@@H]3O[C@H](COP(=O)(O)CP(=O)(O)O)[C@@H](O)[C@H]3O)c2n1 [11C.12]
T: O=P(O)(O)CP(=O)(O)OC[C@H]1O[C@@H](n2ccc3c(-c4ccnc5ccccc45)ncnc32)[C@@H](F)[C@@H]1O [34A.28]
Challenge: rank_up(items): orders items by reported fraction unbound at 4 h, 100 µM in ascending numerical order. Answer format: the labels, in the requested order.
Response given: T, P, R, S, Q

A: O=P(O)(O)CP(=O)(O)OC[C@H]1O[C@@H](n2ccc3c(-c4cccc5c4CCCC5)ncnc32)[C@H](O)[C@@H]1O
B: O=P(O)(O)CP(=O)(O)OC[C@H]1O[C@@H](n2ccc3c(-c4cccc5c4CCCC5)nc(Cl)nc32)[C@H](O)[C@@H]1O
C: C[C@H](Nc1cc(Cl)nc2c1cnn2[C@@H]1O[C@H](COP(=O)(O)CP(=O)(O)O)[C@@H](O)[C@H]1O)c1ccccc1F [AB680, quemliclustat, reference compound]
Challenge: rank_up(items): orders items by reported fraction unbound at 4 h, 100 µM in ascending numerical order. Answer format: the labels, in the requested order.
Response given: C, B, A

1: COC(=O)c1ccc2cc(-c3nc(Cl)nc4c3ccn4[C@@H]3O[C@H](COP(=O)(O)CP(=O)(O)O)[C@@H](O)[C@H]3O)ccc2c1
2: Nc1nc(-c2cc3ccccc3o2)c2ccn([C@@H]3O[C@H](COP(=O)(O)CP(=O)(O)O)[C@@H](O)[C@H]3O)c2n1 [11C.8]
Challenge: Rank 1 against 2 by their fraction unbound at 4 h, 100 µM values and give the higher one. Mark your selection by writing its label.
Response given: 2
(2: 0.391, 1: 0.234)

P: O=P(O)(O)CP(=O)(O)OC[C@H]1O[C@@H](n2ccc3c(-c4ccnc5ccccc45)ncnc32)[C@H](O)[C@@H]1O
Q: O=P(O)(O)CP(=O)(O)OC[C@H]1O[C@@H](n2ccc3c(-c4ccccc4)ncnc32)[C@@H](F)[C@@H]1O [34A.5]
R: Cc1nc(-c2cccc3ccccc23)c2ccn([C@@H]3O[C@H](COP(=O)(O)CP(=O)(O)O)[C@@H](O)[C@H]3O)c2n1 [18E.6]
S: O=P(O)(O)CP(=O)(O)OC[C@H]1O[C@@H](n2ccc3c(-c4ccc5cc(F)ccc5c4)nc(Cl)nc32)[C@H](O)[C@@H]1O
T: O=P(O)(O)CP(=O)(O)OC[C@H]1O[C@@H](n2ccc3c(-c4cccc5c4CCCC5)ncnc32)[C@@H](F)[C@@H]1O [34A.12]
Challenge: Given 5 compounds, produce a descending ranking by fraction unbound at 4 h, 100 µM. Answer format: the labels, in the requested order.
Response given: P, R, Q, S, T
